In this section, each of the sequences is paired with its reported gcPBM binding intensity (ln).
tested on: PF3D7_0420300 AP2 domain 1 (GST-tagged); experiment: gcPBM binding intensity (ln(normalized median fluorescence intensity)); higher = stronger DNA binding
Over roughly 25,000 sequences, “ln(normalized median fluorescence intensity)” has its median near 9.3; the highest 2% begin near 10. This is one part of a sample in which the highest values are shown more often than they occur.
VALUE KIND: gcPBM binding intensity (ln)

* TGTCATGATACATACACACACATACCCATACCCATA [CACACA_site5211] | 9.88
* TAATTTCTTTAGGGGGTGCTTTTATAGTTTTTATTA | 10.1
* TTAATTTTTAGAAGAACACACACATATATATTATGA [CACACA_site7969] | 9.59
* ACAAATAAAAATATTACACACACTATTATATTGATA [CACACA_site1494] | 9.86
* TGTAATAAATAGTACACACACACATATATATATATT [CACACA_site1388] | 9.94
* TTTATTAATTTATAGTGTACATATTAATAATATATT [XGTACX_site7949] | 9.09
* GTTTTCTAGTGGGGGTGTACATATTTATATTTAATA [XGTACX_site8378] | 10.2
* ATATATTATTTCTAGTGTACATACCCATATATAATA [XGTACX_site8902] | 9.46
* ACATCAAGCAGACACACACACACACCCACCCACCCA [CACACA_site8012] | 10.4
* AATCAAAACATTAAAAAGAAAAAATATATATATATA [CACACA_negctrl_site366] | 9.03
* TAAAAATATAGGTATACACACATATAAATATAAATA [CACACA_site7785] | 9.64
* AAAAAAAAAAAACACACACACAAATACAAATACATA [CACACA_site415] | 10.2
* ATAAAATTTTATATGGGTACATAATATAATATATAT [XGTACX_site8160] | 9.21
* TACACAAGCAGACACACACACATATATATATATATA [CACACA_site1270] | 9.72
* AGATACTTTCCTCAAACACACAAAACTATACAACAA [CACACA_site1474] | 9.45
* ATTTACATTCACTTATGTACTTATATAATTTTATTT [XGTACX_site8150] | 9.54
* AATATTATTTAGGAGCGTACGTTTTATTTACATATT [XGTACX_site5188] | 9.4
